Give pIC50 for every item shown.
- system_name: Vascular endothelial growth factor receptor 2 (Homo sapiens, UniProt P35968)
- Sequence (P35968 whole entry): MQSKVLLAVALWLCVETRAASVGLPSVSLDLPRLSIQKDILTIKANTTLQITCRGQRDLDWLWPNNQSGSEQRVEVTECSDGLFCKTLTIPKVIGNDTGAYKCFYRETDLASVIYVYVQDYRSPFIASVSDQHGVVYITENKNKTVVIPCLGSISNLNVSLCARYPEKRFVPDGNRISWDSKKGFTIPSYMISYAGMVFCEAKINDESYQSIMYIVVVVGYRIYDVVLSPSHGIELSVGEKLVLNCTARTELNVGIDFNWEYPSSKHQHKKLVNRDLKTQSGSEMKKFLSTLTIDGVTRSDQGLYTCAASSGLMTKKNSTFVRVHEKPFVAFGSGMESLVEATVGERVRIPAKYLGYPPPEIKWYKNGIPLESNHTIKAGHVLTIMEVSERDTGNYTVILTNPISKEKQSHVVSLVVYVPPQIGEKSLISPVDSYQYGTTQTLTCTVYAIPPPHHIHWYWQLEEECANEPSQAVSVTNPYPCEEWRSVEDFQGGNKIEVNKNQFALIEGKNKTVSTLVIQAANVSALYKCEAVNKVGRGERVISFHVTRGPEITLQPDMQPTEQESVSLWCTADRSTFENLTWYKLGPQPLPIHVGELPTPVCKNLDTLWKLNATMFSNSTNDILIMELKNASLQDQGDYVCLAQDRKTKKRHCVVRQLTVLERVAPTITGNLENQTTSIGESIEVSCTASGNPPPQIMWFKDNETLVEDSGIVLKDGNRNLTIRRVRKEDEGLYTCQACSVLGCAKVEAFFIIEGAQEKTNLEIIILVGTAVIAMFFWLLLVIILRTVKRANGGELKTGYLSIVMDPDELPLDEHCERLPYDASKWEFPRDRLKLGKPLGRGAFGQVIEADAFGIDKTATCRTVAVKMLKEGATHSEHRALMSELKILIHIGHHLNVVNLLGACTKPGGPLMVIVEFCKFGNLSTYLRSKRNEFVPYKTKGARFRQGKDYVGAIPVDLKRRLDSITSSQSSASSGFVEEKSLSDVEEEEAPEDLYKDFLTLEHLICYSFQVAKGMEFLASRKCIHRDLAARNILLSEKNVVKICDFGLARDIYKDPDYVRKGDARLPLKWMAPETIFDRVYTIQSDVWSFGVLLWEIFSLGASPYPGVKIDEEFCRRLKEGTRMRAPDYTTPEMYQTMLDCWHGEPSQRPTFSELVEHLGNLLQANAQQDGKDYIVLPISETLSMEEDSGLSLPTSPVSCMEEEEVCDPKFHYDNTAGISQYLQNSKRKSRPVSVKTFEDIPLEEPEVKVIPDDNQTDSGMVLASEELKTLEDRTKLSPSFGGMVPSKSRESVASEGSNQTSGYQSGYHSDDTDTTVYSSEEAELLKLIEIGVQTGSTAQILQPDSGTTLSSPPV
pIC50: −log10 of the molar value.

Query the reported pIC50 for Vascular endothelial growth factor receptor 2 (Homo sapiens, UniProt P35968); item: COc1cc2c(cc1OC)Nc1ncnc(NCc3ccc(F)c(Cl)c3)c1NC2 5.70

Also COc1cc2c(cc1OC)Oc1ncnc(Oc3cccc(Br)c3)c1NC2 ? < 5.00

Also COc1cc2c(cc1OC)Nc1ncnc(N[C@H](C)c3ccccc3)c1NC2 ? 5.70

Also COc1cc2c(cc1OC)Oc1ncnc(Sc3cccc(Br)c3)c1NC2 ? < 5.00

Also COc1cc2c(cc1OC)Oc1ncnc(Nc3ccc(Br)cc3)c1NC2 ? < 5.00

Also COc1cc2c(cc1OC)Oc1ncnc(Nc3cccc(Br)c3)c1NC2 ? < 5.00

Also COc1cc2c(cc1OC)Oc1ncnc(Nc3ccc4ccccc4c3)c1NC2 ? < 5.00

Also COc1cc2c(cc1OC)Oc1ncnc(Nc3cccc(C)c3)c1NC2 ? < 5.00
